Documented activation at 0.1 µM across a set of molecules
Target: GABAA R (α5β2γ2) (Homo sapiens, UniProt P18507+P31644)
Construct: expressed in transfected cells
Sequence (P31644 32-462): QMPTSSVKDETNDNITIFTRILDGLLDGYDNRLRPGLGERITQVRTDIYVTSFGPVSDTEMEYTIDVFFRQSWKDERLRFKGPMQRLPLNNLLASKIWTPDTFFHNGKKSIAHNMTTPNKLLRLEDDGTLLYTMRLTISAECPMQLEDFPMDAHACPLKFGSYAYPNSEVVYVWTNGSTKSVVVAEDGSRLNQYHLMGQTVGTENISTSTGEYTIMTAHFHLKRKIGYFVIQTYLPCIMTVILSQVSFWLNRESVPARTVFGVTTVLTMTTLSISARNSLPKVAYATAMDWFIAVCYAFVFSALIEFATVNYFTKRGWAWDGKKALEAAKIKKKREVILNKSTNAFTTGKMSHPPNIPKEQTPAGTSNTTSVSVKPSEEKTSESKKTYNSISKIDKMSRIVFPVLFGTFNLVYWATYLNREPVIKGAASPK
Sequence (P47870 25-512 partner limits assumed): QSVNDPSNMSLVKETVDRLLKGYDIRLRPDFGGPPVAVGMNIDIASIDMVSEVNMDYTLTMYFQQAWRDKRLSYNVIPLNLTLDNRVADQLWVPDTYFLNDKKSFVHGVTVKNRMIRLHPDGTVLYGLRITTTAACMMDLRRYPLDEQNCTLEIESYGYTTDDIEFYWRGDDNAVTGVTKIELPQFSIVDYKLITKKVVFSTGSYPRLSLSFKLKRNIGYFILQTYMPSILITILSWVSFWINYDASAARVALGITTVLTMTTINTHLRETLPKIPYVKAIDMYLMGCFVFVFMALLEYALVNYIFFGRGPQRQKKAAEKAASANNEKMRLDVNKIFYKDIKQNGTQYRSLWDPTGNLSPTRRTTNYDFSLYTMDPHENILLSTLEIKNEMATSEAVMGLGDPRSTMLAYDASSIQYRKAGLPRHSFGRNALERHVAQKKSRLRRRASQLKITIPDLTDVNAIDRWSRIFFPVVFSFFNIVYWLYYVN
Sequence (P18507 40-475): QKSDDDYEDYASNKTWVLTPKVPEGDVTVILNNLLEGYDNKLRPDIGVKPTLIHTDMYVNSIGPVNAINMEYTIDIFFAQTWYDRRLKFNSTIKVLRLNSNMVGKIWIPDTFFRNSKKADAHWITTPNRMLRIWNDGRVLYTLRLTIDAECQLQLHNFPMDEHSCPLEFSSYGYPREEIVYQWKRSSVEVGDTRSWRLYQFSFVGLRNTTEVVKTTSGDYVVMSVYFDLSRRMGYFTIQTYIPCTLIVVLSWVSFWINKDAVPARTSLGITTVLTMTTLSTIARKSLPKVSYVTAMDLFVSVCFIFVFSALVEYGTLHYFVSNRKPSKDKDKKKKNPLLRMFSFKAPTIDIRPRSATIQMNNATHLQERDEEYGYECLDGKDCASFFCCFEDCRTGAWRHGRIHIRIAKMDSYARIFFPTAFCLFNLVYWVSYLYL
Experiment: Positive allosteric modulator activity: potentiation of EC20 GABA current in oocytes
Type: cell-based
Conditions: read-out: GABA α5 Functional Data: potentiation, @ 100 nM, EC20 GABA; ranges of the column heads

Some entries whose results are on file:
CCn1cc2c(n1)-c1cc(OC)ccc1-n1cnc(-c3noc(CN(C)C)n3)c1C2 | 20 to 50%
COC(C)(C)c1nc(-c2ncn3c2Cc2cn(C)nc2-c2cc(Cl)ccc2-3)no1 | > 50%

Challenge: What does the record list as activation at 0.1 µM for COCc1nc(-c2ncn3c2Cc2cn(CC4CCCO4)nc2-c2cc(OC)ccc2-3)no1 (stereo not shown) ?
Response given: 20 to 50%

Challenge: Record request: activation at 0.1 µM value, item COc1ccc2c(c1)-c1nn(CC3CCCO3)cc1Cc1c(-c3noc(C4COC4)n3)ncn1-2 (stereo not shown)
Response given: > 50%

Challenge: Entry under review: `COCCn1cc2c(n1)-c1cc(OC)ccc1-n1cnc(-c3noc(C(C)C)n3)c1C2` . Reported activation at 0.1 µM?
Response given: 20 to 50%

Challenge: // activation at 0.1 µM lookup, key: `COc1ccc2c(c1)-c1nn(C)cc1Cc1c(-c3nc(C)no3)ncn1-2`
Response given: 5 to 20%

Challenge: Quick check: activation at 0.1 µM of `CCn1cc2c(n1)-c1cc(Cl)ccc1-n1cnc(C3=N[C@@H](c4ccccc4)CO3)c1C2` ?
Response given: 20 to 50%

Challenge: Please give the measured activation at 0.1 µM for this molecule: `COc1ccc2c(c1)-c1c(cnn1C)Cc1c(-c3noc(C4(F)CC4)n3)ncn1-2`
Response given: 20 to 50%

Challenge: Request the reported activation at 0.1 µM associated with `COc1ccc2c(c1)-c1nn(CC3COC3)cc1Cc1c(-c3noc(C(C)(C)OC)n3)ncn1-2`
Response given: 5 to 20%

Challenge: activation at 0.1 µM lookup needed for `COc1ccc2c(c1)-c1nn(C)cc1Cc1c(-c3nnc(C(F)(F)F)o3)ncn1-2` , thanks.
Response given: 5 to 20%

----------
# key: entry, value: activation at 0.1 µM
Target: GABAA R (α5β2γ2) (Homo sapiens, UniProt P18507+P31644)
Construct: expressed in transfected cells
Experiment: Positive allosteric modulator activity: potentiation of EC20 GABA current in oocytes
Type: cell-based
Conditions: read-out: GABA α5 Functional Data: potentiation, @ 100 nM, EC20 GABA; ranges of the column heads

A selection of reference data follows.
Cc1nc(-c2ncn3c2Cc2cn[nH]c2-c2cc(Cl)ccc2-3)no1 | 5 to 20%
Clc1ccc2c(c1)-c1nn(Cc3ccccn3)cc1Cc1c(-c3nc(C4CC4)no3)ncn1-2 | 5 to 20%
COc1ccc2c(c1)-c1nn(CC3COC3)cc1Cc1c(-c3nc(COC4CCOC4)no3)ncn1-2 (stereo not shown) | 20 to 50%
COCCn1cc2c(n1)-c1cc(OC)ccc1-n1cnc(-c3noc(COCC(F)(F)F)n3)c1C2 | 5 to 20%
Clc1ccc2c(c1)-c1[nH]ncc1Cc1c(C#Cc3cccnc3)ncn1-2 | > 50%
COc1ccc2c(c1)-c1nn(C)cc1Cc1c(-c3noc(C(F)(F)F)n3)ncn1-2 | > 50%
Clc1ccc2c(c1)-c1[nH]ncc1Cc1c(-c3nc(C4CCCC4)no3)ncn1-2 | 5 to 20%
COCCn1cc2c(n1)-c1cc(OC)ccc1-n1cnc(-c3nc(COC)no3)c1C2 | 20 to 50%

Challenge: Item: `Clc1ccc2c(c1)-c1nn(CC3CC3)cc1Cc1c(-c3nc(C4CC4)no3)ncn1-2` Test system: GABAA R (α5β2γ2) (Homo sapiens, UniProt P18507+P31644) Read-out: activation at 0.1 µM Value: ?
Response given: 20 to 50%

Challenge: Quick check: activation at 0.1 µM on GABAA R (α5β2γ2) (Homo sapiens, UniProt P18507+P31644), item `COc1ccc2c(c1)-c1nn(Cc3ccccc3)cc1Cc1c(-c3nc(C(C)C)no3)ncn1-2` ?
Response given: 20 to 50%
